biological target: T1, hCD137-mFc-Avi (human, UniProt Q07011 24-186); experiment: SPR (Biacore 3000), mAb^2 captured by anti-human Fc, dimeric CD137-mFc as analyte, 1:1 model with mass transfer
T1 construct: dimer; also called human CD137-mFc-Avi; human CD137-mFc
T1 sequence (Q07011 24-186): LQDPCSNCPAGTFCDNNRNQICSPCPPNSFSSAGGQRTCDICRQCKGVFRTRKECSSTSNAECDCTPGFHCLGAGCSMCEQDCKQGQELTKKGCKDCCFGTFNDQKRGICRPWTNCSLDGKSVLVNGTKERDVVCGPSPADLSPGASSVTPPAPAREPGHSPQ
endpointName: pKd
Field pKd (float): negative decimal logarithm of the concentration in molar.

Req: So what's the measured pKd for this one? FS20-22-49AA/FS30-10-12 (bispecific antibody, human IgG1, kappa, L234A L235A, V domains shown, M97 (Kabat) to T against FS30-10; also called FS30-10-12 in mAb^2 format) VH: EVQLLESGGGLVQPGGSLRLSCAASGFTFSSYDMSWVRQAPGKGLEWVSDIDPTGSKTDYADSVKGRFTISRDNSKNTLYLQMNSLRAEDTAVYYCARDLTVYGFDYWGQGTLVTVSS VL: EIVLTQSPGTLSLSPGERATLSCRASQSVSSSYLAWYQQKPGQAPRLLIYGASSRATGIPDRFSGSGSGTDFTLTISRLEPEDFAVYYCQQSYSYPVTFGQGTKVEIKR
Resp: 8.20
